# TEST_METHOD_NOTES: Quantitative solubility determination of voruciclib malonate after the thermocycling experiments (UPLC)
# Type: physicochemical
# ASSAY_SETUP: tert-butyl methyl ether, organic solvent or mixture, thermodynamic from solid, tert-Butyl methyl ether, read-out: Solubility
ATTRIBUTE_MEASURED: solubility

Look up solubility: CN1CC[C@H](c2c(O)cc(O)c3c(=O)cc(-c4ccc(C(F)(F)F)cc4Cl)oc23)[C@H]1CO (stereo in doubt) [voruciclib malonate] < 40 µg/mL

====

# TEST_METHOD_NOTES: Thermodynamic solubility of voruciclib HCl by the shake-flask method (HPLC)
# Assay type: physicochemical
# ASSAY_SETUP: ethanol, organic solvent or mixture, thermodynamic from solid, Ethanol; RT, 24 h, amorphous API, HPLC; read-out: Solubility
Structures can show the parent of a compound that is named as a salt.
ATTRIBUTE_MEASURED: solubility at 24 h (mg/mL)
Value expressed in mg/mL; do not type the unit.

Look up solubility at 24 h: CN1CC[C@@H](c2c(O)cc(O)c3c(=O)cc(-c4ccc(C(F)(F)F)cc4Cl)oc23)[C@@H]1CO [voruciclib HCl] 62

====

# TEST_METHOD_NOTES: Quantitative solubility determination of voruciclib malonate after the thermocycling experiments (UPLC)
# Type: physicochemical
# ASSAY_SETUP: 2-propanol/water (90/10), organic solvent or mixture, thermodynamic from solid, 2-Propanol/water (90/10), read-out: Solubility
ATTRIBUTE_MEASURED: solubility (mg/mL)
Value expressed in mg/mL; do not type the unit.

Look up solubility: CN1CC[C@H](c2c(O)cc(O)c3c(=O)cc(-c4ccc(C(F)(F)F)cc4Cl)oc23)[C@H]1CO (stereo in doubt) [voruciclib malonate] 130

====

# TEST_METHOD_NOTES: Solubility of salts in water and in 0.2 M phosphate buffer pH 6 at 37° C. after 4 hours (HPLC-DAD)
# Format: physicochemical
# ASSAY_SETUP: water, 37° C., 4 hours, about 5 mg salt, up to 1 mL
ATTRIBUTE_MEASURED: solubility (µg/mL)
Value expressed in µg/mL; do not type the unit.

CN1CC[C@@H](c2c(O)cc(O)c3c(=O)cc(-c4ccc(C(F)(F)F)cc4Cl)oc23)[C@@H]1CO.O=C(O)CC(=O)O; 4440
CN1CC[C@@H](c2c(O)cc(O)c3c(=O)cc(-c4ccc(C(F)(F)F)cc4Cl)oc23)[C@@H]1CO.CN1CC[C@@H](c2c(O)cc(O)c3c(=O)cc(-c4ccc(C(F)(F)F)cc4Cl)oc23)[C@@H]1CO.O=S(=O)(O)c1cccc2c(S(=O)(=O)O)cccc12; 20

We next turn to a different molecule, shown below.
Look up solubility: CN1CCC(c2c(O)cc(O)c3c(=O)cc(-c4ccc(C(F)(F)F)cc4Cl)oc23)C1CO.CN1CCC(c2c(O)cc(O)c3c(=O)cc(-c4ccc(C(F)(F)F)cc4Cl)oc23)C1CO.O=C(OC(C(=O)O)C(OC(=O)c1ccccc1)C(=O)O)c1ccccc1 (centres unmarked) 30

====

# TEST_METHOD_NOTES: Thermodynamic solubility of voruciclib HCl by the shake-flask method (HPLC)
# Format: physicochemical
# ASSAY_SETUP: diethyl ether, organic solvent or mixture, thermodynamic from solid, Diethyl ether; RT, 24 h, amorphous API, HPLC; read-out: Solubility
Structures can show the parent of a compound that is named as a salt.
ATTRIBUTE_MEASURED: solubility at 24 h
Just so you know, I need the unit written after the number.

Look up solubility at 24 h: CN1CC[C@@H](c2c(O)cc(O)c3c(=O)cc(-c4ccc(C(F)(F)F)cc4Cl)oc23)[C@@H]1CO [voruciclib HCl] 200 µg/mL

====

# TEST_METHOD_NOTES: Approximate solubility assessment of the free base by the solvent (aliquot) addition method
# Assay type: physicochemical
# ASSAY_SETUP: organic solvent or mixture, thermodynamic from solid; Ethyl acetate; RT; approximate, solvent addition; read-out: Solubility
ATTRIBUTE_MEASURED: solubility

Look up solubility: CN1CC[C@@H](c2c(O)cc(O)c3c(=O)cc(-c4ccc(C(F)(F)F)cc4Cl)oc23)[C@@H]1CO ~1000 µg/mL

====

# TEST_METHOD_NOTES: Quantitative solubility determination of voruciclib malonate after the thermocycling experiments (UPLC)
# Type: physicochemical
# ASSAY_SETUP: acetonitrile, organic solvent or mixture, thermodynamic from solid, Acetonitrile, read-out: Solubility
ATTRIBUTE_MEASURED: solubility (µg/mL)
Value expressed in µg/mL; do not type the unit.

Look up solubility: CN1CC[C@H](c2c(O)cc(O)c3c(=O)cc(-c4ccc(C(F)(F)F)cc4Cl)oc23)[C@H]1CO (stereo in doubt) [voruciclib malonate] 3000

====

# TEST_METHOD_NOTES: Solubility of salts in water and in 0.2 M phosphate buffer pH 6 at 37° C. after 4 hours (HPLC-DAD)
# Format: physicochemical
# ASSAY_SETUP: 0.2M phosphate buffer pH 6, 37° C., about 1 mg salt in 1 mL
ATTRIBUTE_MEASURED: Form (4 h) of residual solid

Example cases with answers are listed next.
CN1CCC(c2c(O)cc(O)c3c(=O)cc(-c4ccc(C(F)(F)F)cc4Cl)oc23)C1CO.CN1CCC(c2c(O)cc(O)c3c(=O)cc(-c4ccc(C(F)(F)F)cc4Cl)oc23)C1CO.O=C(OC(C(=O)O)C(OC(=O)c1ccccc1)C(=O)O)c1ccccc1 (centres unmarked); DiTr1
CN1CC[C@@H](c2c(O)cc(O)c3c(=O)cc(-c4ccc(C(F)(F)F)cc4Cl)oc23)[C@@H]1CO.CN1CC[C@@H](c2c(O)cc(O)c3c(=O)cc(-c4ccc(C(F)(F)F)cc4Cl)oc23)[C@@H]1CO.O=S(=O)(O)c1cccc2c(S(=O)(=O)O)cccc12; Free
CN1CCC(c2c(O)cc(O)c3c(=O)cc(-c4ccc(C(F)(F)F)cc4Cl)oc23)C1CO.O=P(O)(O)O (centres unmarked); Free
CN1CC[C@@H](c2c(O)cc(O)c3c(=O)cc(-c4ccc(C(F)(F)F)cc4Cl)oc23)[C@@H]1CO.CN1CC[C@@H](c2c(O)cc(O)c3c(=O)cc(-c4ccc(C(F)(F)F)cc4Cl)oc23)[C@@H]1CO.O.O=C(O)C(=O)O; Am

We next turn to a different molecule, shown below.
Look up Form (4 h) of residual solid: CN1CC[C@@H](c2c(O)cc(O)c3c(=O)cc(-c4ccc(C(F)(F)F)cc4Cl)oc23)[C@@H]1CO.O=C(O)CC(=O)O Free

====

# TEST_METHOD_NOTES: Thermodynamic solubility of voruciclib HCl by the shake-flask method (HPLC)
# Type: physicochemical
# ASSAY_SETUP: 1,2-dimethoxyethane, organic solvent or mixture, thermodynamic from solid, 1,2-Dimethoxyethane; RT, 24 h, amorphous API, HPLC; read-out: Solubility
Where a name gives a salt, the structure may show the parent alone.
ATTRIBUTE_MEASURED: solubility at 24 h (µg/mL)
Value expressed in µg/mL; do not type the unit.

Look up solubility at 24 h: CN1CC[C@@H](c2c(O)cc(O)c3c(=O)cc(-c4ccc(C(F)(F)F)cc4Cl)oc23)[C@@H]1CO [voruciclib HCl] 1600

====

# TEST_METHOD_NOTES: Thermodynamic solubility of voruciclib HCl by the shake-flask method (HPLC)
# Format: physicochemical
# ASSAY_SETUP: tetrahydrofuran, organic solvent or mixture, thermodynamic from solid, Tetrahydrofuran; RT, 24 h, amorphous API, HPLC; read-out: Solubility
Where a name gives a salt, the structure may show the parent alone.
ATTRIBUTE_MEASURED: solubility at 24 h (µg/mL)
Value expressed in µg/mL; do not type the unit.

Look up solubility at 24 h: CN1CC[C@@H](c2c(O)cc(O)c3c(=O)cc(-c4ccc(C(F)(F)F)cc4Cl)oc23)[C@@H]1CO [voruciclib HCl] 9600

====

# TEST_METHOD_NOTES: Quantitative solubility determination of voruciclib malonate after the thermocycling experiments (UPLC)
# Assay type: physicochemical
# ASSAY_SETUP: acetone, organic solvent or mixture, thermodynamic from solid, Acetone, read-out: Solubility
ATTRIBUTE_MEASURED: solubility (µg/mL)
Value expressed in µg/mL; do not type the unit.

Look up solubility: CN1CC[C@H](c2c(O)cc(O)c3c(=O)cc(-c4ccc(C(F)(F)F)cc4Cl)oc23)[C@H]1CO (stereo in doubt) [voruciclib malonate] 5000

====

# TEST_METHOD_NOTES: Quantitative solubility determination of voruciclib malonate after the thermocycling experiments (UPLC)
# Assay type: physicochemical
# ASSAY_SETUP: pentane, organic solvent or mixture, thermodynamic from solid, Pentane, read-out: Solubility
ATTRIBUTE_MEASURED: solubility

Look up solubility: CN1CC[C@H](c2c(O)cc(O)c3c(=O)cc(-c4ccc(C(F)(F)F)cc4Cl)oc23)[C@H]1CO (stereo in doubt) [voruciclib malonate] < 50 µg/mL
